# System: Plasmodium falciparum
# ASSAY_COMMENT: Antimalarial activity against erythrocytic stage of Plasmodium falciparum NF54 assessed as incorporation of [3H]hypoxanthine after 48 hrs by scintillation counting analysis
# Type: functional, organism-based
METRIC: IC50 (nM)
Your answer should be a plain number; it is taken to be in nM.

// known answers, use as guide
# SMILES_INPUT, IC50, nM
measured = [
    ("N=C(N)Nc1ccc(Nc2ccc(NC(=O)CCCCN)cc2)cc1", 1460),
    ("N=C(N)Nc1ccc(Cc2ccc(NC(=O)CCCCCCCCCCCN)cc2)cc1", 2320),
    ("N=C(N)Nc1ccc(Nc2ccc(NC(=O)CCCCCCCCCCCN)cc2)cc1", 2710),
    ("N=C(N)Nc1ccc(C(=O)c2ccc(NC(=O)CCCCN)cc2)cc1", 2550),
    ("N=C(N)Nc1ccc(C(=O)c2ccc(NC(=O)CCCCCCCCCCCN)cc2)cc1", 1980),
]

Req: Could you share which IC50 value was measured for N=C(N)Nc1ccc(Cc2ccc(NC(=O)CCCCN)cc2)cc1 ?
Resp: 589

====

# Test system: Salmonidae
# ASSAY_COMMENT: Binding affinity to salmon sperm DNA in 10 mM phosphate buffer assessed as change in melting temperature at 15 uM by thermal denaturation assay
METRIC: ΔTm (°C)
Your answer should be a plain number; it is taken to be in °C.

// known answers, use as guide
# SMILES_INPUT, ΔTm [°C]
records = [
    ("N=C(N)Nc1ccc(C(=O)c2ccc(NC(=O)CCCCN)cc2)cc1", 5.2),
    ("N=C(N)Nc1ccc(Nc2ccc(NC(=O)CCCN)cc2)cc1", 1),
    ("N=C(N)Nc1ccc(CCc2ccc(N)cc2)cc1", 0.1),
]

Req: Could you share which ΔTm value was measured for N=C(N)Nc1ccc(Nc2ccc(NC(=O)CCCCN)cc2)cc1 ?
Resp: 6.1

Req: Could you share which ΔTm value was measured for N=C(N)Nc1ccc(C(=O)c2ccc(NC(=O)CCCCCCCCCCN)cc2)cc1 ?
Resp: 2

Req: Could you share which ΔTm value was measured for N=C(N)Nc1ccc(C(=O)c2ccc(N)cc2)cc1 ?
Resp: 0

====

# Tested on: Salmonidae
# ASSAY_COMMENT: Binding affinity to salmon sperm DNA in 10 mM phosphate buffer assessed as change in melting temperature at 15 uM by thermal denaturation assay
Field 'label' (enum: 1 (yes) / 0 (no)). Set to 1 (yes) when ΔTm is strictly under 2 °C; else 0 (no).

# SMILES_INPUT, CLASS_NAME
rows = [
    ("N=C(N)Nc1ccc(CCc2ccc(NC(=O)CCCCN)cc2)cc1", "0 (no)"),
    ("N=C(N)Nc1ccc(C(=O)c2ccc(NC(=O)CCCCCCCCCCCN)cc2)cc1", "0 (no)"),
    ("N=C(N)Nc1ccc(C(=O)c2ccc(NC(=N)N)cc2)cc1", "0 (no)"),
    ("N=C(N)Nc1ccc(Oc2ccc(NC(=O)CCCN)cc2)cc1", "1 (yes)"),
]

Req: Report whether reported ΔTm is lower than 2 °C (strictly) for N=C(N)Nc1ccc(Cc2ccc(N)cc2)cc1
Resp: 0 (no)

Req: Report whether reported ΔTm is lower than 2 °C (strictly) for N=C(N)Nc1ccc(CCc2ccc(NC(=O)CCCCCCCCCCCN)cc2)cc1
Resp: 1 (yes)

====

# ASSAY_COMMENT: Selectivity index, ratio of IC50 for rat L6 cells to IC50 for Trypanosoma brucei rhodesiense STIB900
# Type: toxicity, cell-based
# STUDY_CONDITIONS: L6 cells versus Trypanosoma brucei rhodesiense STIB900, read-out: Ratio IC50
METRIC: selectivity ratio
Give the figure only, with no unit attached.

# SMILES_INPUT, selectivity ratio
records = [
    ("N=C(N)Nc1ccc(CCc2ccc(NC(=O)CCCN)cc2)cc1", 10),
]

Req: Could you share which selectivity ratio value was measured for N=C(N)Nc1ccc(Oc2ccc(NC(=O)CCCCN)cc2)cc1 ?
Resp: 3

Req: Could you share which selectivity ratio value was measured for N=C(N)Nc1ccc(Nc2ccc(NC(=O)CCCCCCCCCCN)cc2)cc1 ?
Resp: 2

Req: Could you share which selectivity ratio value was measured for N=C(N)c1ccc(OCCCCCOc2ccc(C(=N)N)cc2)cc1 ?
Resp: 755

Req: Could you share which selectivity ratio value was measured for N=C(N)Nc1ccc(C(=O)c2ccc(NC(=O)CCCCN)cc2)cc1 ?
Resp: 1

Req: Could you share which selectivity ratio value was measured for N=C(N)Nc1ccc(CCc2ccc(NC(=O)CCCCN)cc2)cc1 ?
Resp: 5

Req: Could you share which selectivity ratio value was measured for N=C(N)Nc1ccc(Oc2ccc(NC(=O)CCCCCCCN)cc2)cc1 ?
Resp: 4

Req: Could you share which selectivity ratio value was measured for N=C(N)Nc1ccc(Nc2ccc(NC(=O)CCCCN)cc2)cc1 ?
Resp: 4

Req: Could you share which selectivity ratio value was measured for N=C(N)Nc1ccc(Nc2ccc(NC(=O)CCCCCCCCCCCN)cc2)cc1 ?
Resp: 3

====

# ASSAY_COMMENT: Selectivity index, ratio of IC50 for rat L6 cells to IC50 for Plasmodium falciparum NF54
# Format: toxicity, cell-based
# STUDY_CONDITIONS: L6 cells versus Plasmodium falciparum NF54, read-out: Ratio IC50
METRIC: selectivity ratio
Give the figure only, with no unit attached.

# SMILES_INPUT, VALUE_OBSERVED
data = [
    ("N=C(N)Nc1ccc(Oc2ccc(NC(=O)CCCCCCCCCCN)cc2)cc1", 44),
    ("N=C(N)Nc1ccc(Oc2ccc(NC(=O)CCCCCCCCCCCN)cc2)cc1", 13),
    ("N=C(N)Nc1ccc(Oc2ccc(NC(=O)CCCCCCCN)cc2)cc1", 913),
    ("N=C(N)Nc1ccc(Nc2ccc(NC(=O)CCCCCCCCCCN)cc2)cc1", 41),
    ("N=C(N)c1ccc(OCCCCCOc2ccc(C(=N)N)cc2)cc1", 56),
]

Req: Could you share which selectivity ratio value was measured for N=C(N)Nc1ccc(Nc2ccc(NC(=O)CCCCN)cc2)cc1 ?
Resp: 153

Req: Could you share which selectivity ratio value was measured for N=C(N)Nc1ccc(Oc2ccc(NC(=O)CCCCN)cc2)cc1 ?
Resp: 316

Req: Could you share which selectivity ratio value was measured for N=C(N)Nc1ccc(C(=O)c2ccc(NC(=O)CCCCN)cc2)cc1 ?
Resp: 55

Req: Could you share which selectivity ratio value was measured for N=C(N)Nc1ccc(CCc2ccc(NC(=O)CCCCN)cc2)cc1 ?
Resp: 103

Req: Could you share which selectivity ratio value was measured for N=C(N)Nc1ccc(C(=O)c2ccc(NC(=O)CCCCCCCCCCCN)cc2)cc1 ?
Resp: 5

Req: Could you share which selectivity ratio value was measured for N=C(N)Nc1ccc(Nc2ccc(NC(=O)CCCCCCCCCCCN)cc2)cc1 ?
Resp: 4

====

Items are presented alongside their recorded IC50.
# Test system: Plasmodium falciparum
# ASSAY_COMMENT: Antimalarial activity against erythrocytic stage of Plasmodium falciparum NF54 assessed as incorporation of [3H]hypoxanthine after 48 hrs by scintillation counting analysis
# Type: functional, organism-based
Your answer should be a plain number; it is taken to be in µM.

Req: Could you share which IC50 value was measured for N=C(N)Nc1ccc(CCc2ccc(NC(=O)CCCCN)cc2)cc1 ?
Resp: 1.06

Req: Could you share which IC50 value was measured for N=C(N)Nc1ccc(Oc2ccc(NC(=O)CCCCN)cc2)cc1 ?
Resp: 0.106

Req: Could you share which IC50 value was measured for N=C(N)Nc1ccc(Oc2ccc(NC(=O)CCCCCCCCCCCN)cc2)cc1 ?
Resp: 1.71

Req: Could you share which IC50 value was measured for N=C(N)Nc1ccc(Nc2ccc(NC(=O)CCCCCCCCCCN)cc2)cc1 ?
Resp: 3.79

====

# Tested on: Salmonidae
# ASSAY_COMMENT: Binding affinity to salmon sperm DNA in 10 mM phosphate buffer assessed as change in melting temperature at 15 uM by thermal denaturation assay
Field 'label' (enum: 1 / 0). Set to 1 when ΔTm is strictly under 2 °C; else 0.

# SMILES_INPUT, CLASS_NAME
measured = [
    ("N=C(N)Nc1ccc(Nc2ccc(NC(=N)N)cc2)cc1", 0),
    ("N=C(N)Nc1ccc(Nc2ccc(NC(=O)CCCCCCCCCCCN)cc2)cc1", 0),
    ("N=C(N)Nc1ccc(Oc2ccc(NC(=O)CCCCCCCN)cc2)cc1", 0),
    ("N=C(N)Nc1ccc(Nc2ccc(NC(=O)CCCCCCCCCCN)cc2)cc1", 0),
    ("N=C(N)Nc1ccc(CCc2ccc(NC(=O)CCCCCCCCCCN)cc2)cc1", 1),
    ("N=C(N)Nc1ccc(Oc2ccc(NC(=O)CCCCN)cc2)cc1", 0),
]

Req: Report whether reported ΔTm is lower than 2 °C (strictly) for N=C(N)Nc1ccc(C(=O)c2ccc(NC(=O)CCCN)cc2)cc1
Resp: 0

Req: Report whether reported ΔTm is lower than 2 °C (strictly) for N=C(N)Nc1ccc(CCc2ccc(NC(=O)CCCN)cc2)cc1
Resp: 0

Req: Report whether reported ΔTm is lower than 2 °C (strictly) for N=C(N)Nc1ccc(Cc2ccc(NC(=O)CCCCCCCCCCN)cc2)cc1
Resp: 1

Req: Report whether reported ΔTm is lower than 2 °C (strictly) for N=C(N)Nc1ccc(Cc2ccc(NC(=O)CCCCCCCN)cc2)cc1
Resp: 1

Req: Report whether reported ΔTm is lower than 2 °C (strictly) for N=C(N)Nc1ccc(Cc2ccc(NC(=O)CCCN)cc2)cc1
Resp: 1
